# Assay Summary: Oral bioavailability in rat at 10 mg/kg
# Format: ADME, organism-based
# Run Conditions: in vivo
Endpoint: bioavailability (%)
Report the figure in % without appending any unit label.

For the compound `CC[C@@H](C)Nc1ncc(C(=O)Nc2cc(C(=O)NC)ccc2C)s1` , report bioavailability. 75

###

# Assay Summary: Cmax in rat at 10 mg/kg, po
# Assay type: ADME, organism-based
# Parameters: dose 10 mg/kg, route oral
# Run Conditions: in vivo
Endpoint: Cmax (µM)
Report the figure in µM without appending any unit label.

For the compound `CC[C@@H](C)Nc1ncc(C(=O)Nc2cc(C(=O)NC)ccc2C)s1` , report Cmax. 8.7

###

# Assay Summary: Aqueous solubility at pH 6.5
# Type: physicochemical
# Run Conditions: buffer
Endpoint: solubility (µg/mL)
Report the figure in µg/mL without appending any unit label.

For the molecule `CC[C@@H](C)Nc1ncc(C(=O)Nc2cc(C(=O)NC)ccc2C)s1` , report solubility. 22

###

# Test system: PBMC
# Assay Summary: Inhibition of LPS-induced IL1-beta production in human PBMC
# Format: functional, cell-based
Endpoint: IC50 (nM)
Report the figure in nM without appending any unit label.

Give the observed IC50 of `CC[C@@H](C)Nc1ncc(C(=O)Nc2cc(C(=O)NC)ccc2C)s1` for PBMC. 99

###

Read-out record for Mitogen-activated protein kinase 14 (Homo sapiens, UniProt Q16539): IC50

For the compound `CCNC(=O)c1ccc(C)c(N2Cc3nc(NC(C)C)sc3C2=O)c1` , report IC50. 34 nM

For the compound `Cc1cccc(Cl)c1NC(=O)c1cnc(Nc2ccccc2)s1` , report IC50. 62 nM

###

# Test Target: Mitogen-activated protein kinase 14 (Homo sapiens, UniProt Q16539)
# Sequence (Q16539 whole entry): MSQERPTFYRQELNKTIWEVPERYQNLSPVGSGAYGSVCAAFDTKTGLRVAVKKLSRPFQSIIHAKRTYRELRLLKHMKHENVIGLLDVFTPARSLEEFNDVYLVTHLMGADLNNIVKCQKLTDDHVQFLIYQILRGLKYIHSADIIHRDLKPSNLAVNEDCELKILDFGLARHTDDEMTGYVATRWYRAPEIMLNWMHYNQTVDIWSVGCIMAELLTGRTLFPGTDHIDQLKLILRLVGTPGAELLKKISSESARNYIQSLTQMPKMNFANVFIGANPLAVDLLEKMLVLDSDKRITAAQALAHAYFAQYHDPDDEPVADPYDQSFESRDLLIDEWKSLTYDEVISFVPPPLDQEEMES
As shown below, each of these compounds has a reported IC50 value.
Report the figure in µM without appending any unit label.

Below, 4 compounds whose answers are already recorded.
                            chemical_string                               test_target  unit_symbol  observed
0     CCCNc1ncc(C(=O)Nc2cc(C(=O)NC)ccc2C)s1  Mitogen-activated protein kinase 14 (Homo sapiens, UniProt Q16539)           µM    0.0045
1  CNC(=O)c1ccc(C)c(N2Cc3nc(NC4CCCC4)sc3C2=O)c1  Mitogen-activated protein kinase 14 (Homo sapiens, UniProt Q16539)           µM      0.11
2    Cc1ccc(C(N)=O)cc1NC(=O)c1cnc(NC(C)C)s1  Mitogen-activated protein kinase 14 (Homo sapiens, UniProt Q16539)           µM    0.0032
3        Cc1cccc(Cl)c1NC(=O)c1cnc(NC(C)C)s1  Mitogen-activated protein kinase 14 (Homo sapiens, UniProt Q16539)           µM     0.013

Next up:
For the compound `Cc1cccc(Cl)c1NC(=O)c1cnc(NC2CC2)s1` , report IC50. 0.039
